experiment: Rat pharmacokinetic study (IV and PO); assay type: in vivo; conditions: blood, IV 5 mg/kg
MEASUREMENT LABEL: MRT

> print(dat)
                                chem.smiles  meas.value
1  OCCNC(=S)Nc1ccc(-c2nc(N3C[C@H]4CC[C@@H](C3)O4)c3cccn3n2)cc1      3.03 h
2  S=C(Nc1ccc(-c2nc(N3CCOCC3)c3cccn3n2)cc1)Nc1cccnc1      1.67 h
3  O=C(NCCO)Nc1ccc(-c2nc(N3C[C@H]4CC[C@@H](C3)O4)c3cccn3n2)cc1       1.3 h
4  CN1CCN(C(=O)c2ccc(NC(=O)Nc3ccc(-c4nc(N5CCOCC5)c5cccn5n4)cc3)cc2)CC1      3.66 h
